Values compiled from patent US20160046618A1.

- Measured target: Recombinant Cat D (Homo sapiens (Human))
- Sequence (P07339 65-412): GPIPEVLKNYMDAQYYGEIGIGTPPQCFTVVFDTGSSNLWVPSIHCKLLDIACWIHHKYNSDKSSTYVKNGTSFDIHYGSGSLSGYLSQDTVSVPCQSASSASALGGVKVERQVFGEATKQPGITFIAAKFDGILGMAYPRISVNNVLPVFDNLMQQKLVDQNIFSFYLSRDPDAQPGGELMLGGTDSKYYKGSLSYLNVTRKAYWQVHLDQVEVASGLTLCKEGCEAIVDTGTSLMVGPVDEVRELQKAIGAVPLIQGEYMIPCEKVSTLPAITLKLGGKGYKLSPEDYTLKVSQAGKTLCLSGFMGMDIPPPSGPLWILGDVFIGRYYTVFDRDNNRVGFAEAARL
- Assay protocol: In vitro enzymatic Cathepsin D (Cat D) FRET assay
- Type: biochemical
- Run conditions: read-out: IC50 IP (μM) CatD
Measure: IC50 (µM)

Previously resolved entries follow.
compound="C[C@]1(c2cc(Nc3ncnc4cc(OCc5ncco5)cnc34)cc(F)c2F)N=C(N)S[C@@]2(C(=O)N3CCCC3)C[C@H]21 [Example 936]" measured_target="Recombinant Cat D (Homo sapiens (Human))" measure=IC50 observed_value=115
compound="COCCOc1cnc2c(Nc3cc(F)c(F)c([C@@]4(C)N=C(N)S[C@@]5(COC)C[C@H]54)c3)ncnc2c1 [Example 946]" measured_target="Recombinant Cat D (Homo sapiens (Human))" measure=IC50 observed_value=352
compound="C#CCOc1cnc2c(Nc3ccc(F)c([C@@]4(C)N=C(N)S[C@@]5(CF)C[C@H]54)c3)ncnc2c1 [Example 824]" measured_target="Recombinant Cat D (Homo sapiens (Human))" measure=IC50 observed_value=1840
compound="COC(=O)[C@]12C[C@H]1[C@@](C)(c1cc(NC(=O)c3ccc(Cl)cn3)cc(F)c1F)N=C(N)S2 [Example 898]" measured_target="Recombinant Cat D (Homo sapiens (Human))" measure=IC50 observed_value=673
compound="C#CCOc1cnc(C(=O)Nc2cc(F)c(F)c([C@@]3(C)N=C(N)S[C@@]4(C#N)C[C@H]43)c2)cn1 [Example 924]" measured_target="Recombinant Cat D (Homo sapiens (Human))" measure=IC50 observed_value=17.8
compound="COC[C@]12C[C@H]1[C@@](C)(c1cc(Nc3nccc4cc(OCC#CC(F)(F)F)cnc34)cc(F)c1F)N=C(N)S2 [Example 741]" measured_target="Recombinant Cat D (Homo sapiens (Human))" measure=IC50 observed_value=94.4

a. CN(C)C(=O)[C@]12C[C@H]1[C@@](C)(c1cc(Nc3ncnc4cc(OCc5ncco5)cnc34)cc(F)c1F)N=C(N)S2 [Example 923]
b. C#CCOc1cnc(C(=O)Nc2cc(F)c(F)c([C@@]3(C)N=C(N)S[C@@]4(C(F)F)C[C@@H]34)c2)c(C)c1 [Example 685]
c. COC[C@]12C[C@H]1[C@@](C)(c1cc(NC(=O)c3cnc(OCC4CC4)cn3)ccc1F)N=C(N)S2 [Example 1053]
d. COC[C@]12C[C@H]1[C@@](C)(c1cc(NC(=O)c3cnc(OCc4ccccc4)cn3)cc(F)c1F)N=C(N)S2 [Example 1033]
e. CC(C)(O)[C@@]12SC(N)=N[C@](C)(c3cc(NC(=O)c4ccc(Cl)cn4)ccc3F)[C@@H]1C2(F)F [Example 711]
### Prompt Sort the 5 compounds by IC50; largest first, smallest last. Output spec: labels arranged per the requested ranking.
### Response c, e, b, d, a
(c: 1420 µM, e: 753 µM, b: 463 µM, d: 230 µM, a: 121 µM)

P. COC[C@]12C[C@H]1[C@@](C)(c1cc(Nc3ncc(F)c4cc(OCc5ncco5)cnc34)cc(F)c1F)N=C(N)S2 [Example 950]
Q. CC#CCOc1cnc2c(Nc3cc(F)c(F)c([C@@]4(C)N=C(N)S[C@@]5(C(N)=O)C[C@H]54)c3)nccc2n1 [Example 920]
### Prompt Out of P and Q , name the one with the higher IC50. Returns: label corresponding to the selected item.
### Response Q

A. NC1=N[C@](CF)(c2cc(NC(=O)c3ccc(Cl)cn3)ccc2F)[C@@H]2C[C@]2(c2ccon2)S1 [Example 786]
B. C#CCOc1cnc(C(=O)Nc2cnc(OC)c([C@@]3(C)N=C(N)S[C@@]4(CF)C[C@H]43)c2)cn1 [Example 612]
### Prompt Hello, I am sorting some records. Could you say if A or B has the smaller IC50 value? Returns: label corresponding to the selected item.
### Response B
(B: 196 µM, A: 584 µM)

P. Cc1cc(NC(=O)c2cnc(OCc3ncco3)cn2)cc([C@@]2(C)N=C(N)S[C@@]3(C(F)F)C[C@@H]23)c1F [Example 1074]
Q. COC[C@]12C[C@H]1[C@@](C)(c1cc(Nc3nccc4nc(OCc5noc(C)n5)cnc34)cc(F)c1F)N=C(N)S2 [Example 885]
### Prompt Hello, I am sorting some records. Could you say if P or Q has the smaller IC50 value? Returns: label corresponding to the selected item.
### Response Q
